test system: MS2 coat protein; assay: apparent KD of MS2 coat protein; designed switch direction (-1 OFF switch, 1 ON switch): 1; higher = weaker reporter binding; details: Eterna round: R95; input ligand: microRNA oligo, concentration not stated
# apparent KD of MS2 coat protein values compiled below

Past entries and their recorded results:
GGUCCAGCCUGAGCUGGACAAAAGCAUGUACAUGAGGAUCACCCAUGUCAUGUACAAGCUUUUUGCUCGUCUUAAAU [Mat - hsa-mir-208a - 84] (puzzle: Sensor for hsa-mir-208a) : 16.1 nM
GAAAAGGCAACGCAGGAUAUGAAAGGUGAAACAUGAGGAUCACCCAUGUGCUACCUUCCGAUAAAUCAGAAGGGCGACGCCAAAA [Leceave] (puzzle: Same State 2) : 15.6 nM

Next item in the queue.
The reported value for AGUCCAGCCUGAGCUGGACAAAAGCAUGUACAUGAGGAUCACCCAUGUUCAUGUACAAGCUUUUUGCUCGUCUUAAG [salish99_208a_r3_028] (puzzle: Sensor for hsa-mir-208a) in terms of apparent KD of MS2 coat protein is 16 nM

----------
test system: MS2 coat protein; assay: apparent KD of MS2 coat protein; higher = weaker reporter binding; settings: Eterna round: R101; input ligand: FMN 200 uM
# apparent KD of MS2 coat protein values compiled below
Return type: number; implicit unit nM.

Past entries and their recorded results:
GGUCGACUUCAAGGAUAUGGACUGCUUUGCAGUCCAGAAGGUGAGGAUCACCCAUCUACGGUCAGGUUUCUGACCGAUCGACCU [#AddUracilToBrourdLoops 8 - Jieux - Exclusion NG1] (puzzle (switch architecture): Exclusion NG 1) : 102
UAUAAUCUUUAAGGAUAUGACUCCGUUUCGGAGUCAGAAGGUGAGGAUCACCCACCUAGCUCAGGGUCGUUUGACCCUGAGCAU [#AddUracilToBrourdLoops 9 - Jieux - Exclusion NG1] (puzzle (switch architecture): Exclusion NG 1) : 10.6

Next item in the queue.
The reported value for AAAUAACUCGAAGGAUAUGACCCUCGAGGUGACUAAAAGUCACCUCGAGGGUCAGAAGGUCGAGGAUCACCCGACCUAAAUAAA [#SharedSequence SLExNG1: 5-1] (puzzle (switch architecture): Small Loop Exclusion NG 1) in terms of apparent KD of MS2 coat protein is 36.8

----------
# apparent KD of K4 kissing-loop reporter values compiled below
test system: K4 kissing-loop RNA reporter; test: apparent KD of K4 kissing-loop reporter; higher = weaker reporter binding; conditions: Eterna round: R107; input ligand: none;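 note: bound reporter read as fluorescence of individual clusters on recovered sequencing chips by microscopy, with normalized cluster intensities fitted with a binding model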
Return type: number; implicit unit nM.

UAAGAAUAAGUAGCAGUGAUGUUGCUACUACGAGGACCGGUACGGCCGCCACUCGAGCCGUACAAAGUAGCAACUAGUACGAAUA [(H1)-(H2)-(Trp1)-(Trp2)-(T)'-(H)'-(T)''] : 223
GGCAUGGUGGCAGGAUAUCCUAAUAGAGUGAUGUUCUAGCCCUCGUAGGCGAAAGCCUACGAGGGCGGAGAAGGGCCACCAUGCC : 697
UGAUAGGACAGAAGGAGCGGUAGUGAUGUUACCAAAAGUAUAAGGUGUCAAAAGACACCCUGCCAGGUAGGUCGCUGUCCUAUCU : 178
AAUAAAAUCACGGCCGCCACUGAUUAUUUUAUUAGGAGUGAUGUUCCUAUGACAAUAUACCUUAACAGGACCGGGUGAAUAUUUA [JR_ExcTryptoB_Sub010] : 86.1
UAACUUGCAGUGAUGUUGCAAGAACUGGAUACCAGCAUGGAAACAUGCCCUUGGCAGCCAGAAGGUAUCCUCUUGCAUAGAUACU [Design3] : 195

The reported value for GCGCGUCAUGUCAGCGGUGACACUGUCGAUACCAGUGCCGUAAGGCGCCCUUGGCAGCGACGUGCUGGAGUGAUGUUCCAGCGUU [#2 Exclusion - Theophylline A Attempt #31 (HarryS)] in terms of apparent KD of K4 kissing-loop reporter is 153

The reported value for CCAAGCGUCAGCGAUACCAGAAUUCUAGUGAUGUUAGGUUCUGUCAUUGUACUAGCAGUGUUCCCUUGGCAGCGCGUGAUAGGCA [theeternabot_exclusion_KL_Theo_B_16] in terms of apparent KD of K4 kissing-loop reporter is 140

The reported value for UGACUGGACUGAAGGAGCGCUAAACUCCUAGUGAUGUUAGGGAAACAAGACAAAGUCUUGAGGCAGGUAGGUCGCAGUCUAGUCU [FiskerMod 3 - Jieux - Same State - Arginine B] in terms of apparent KD of K4 kissing-loop reporter is 264

The reported value for UGAUAGGACAGAAGGAGCGGUAGUGAUGUUACCAAAAGGGUAAGGUGUCAAAAGACACCCUACCAGGUAGGUCGCUGUCCUAUCU in terms of apparent KD of K4 kissing-loop reporter is 104

The reported value for CAAACGUGCGGUAGGUUCAAGCGCUGGGAAGGAGCGCAGAUGACUGCAGGUAGGUCGCCCAGUGAUGUUGGGCUUUCCACCUACG [Dilausma] in terms of apparent KD of K4 kissing-loop reporter is 119

The reported value for AAAUAAGCUCAUGAUACCAGCCAGUGAUGUUGGUUGGUCCACCGUGUCCGAACAUUAAGCGGCCCUUGGCAGCAUGAUGCGCGUA [Xearxea] in terms of apparent KD of K4 kissing-loop reporter is 90.1

The reported value for CACCAUGAAUUCUCUAGGAGUGAUGUUUUUCGAGGACCGGUACGGCCGCCACUCGGACGAGGACCGUGGGAGCGGCGAACCGACU [ddfgmullin] in terms of apparent KD of K4 kissing-loop reporter is 208
